src = patent US20260176319A1

Target Desc: human GRP receptor (human, UniProt P30550 1-384)
Sequence (P30550 whole entry): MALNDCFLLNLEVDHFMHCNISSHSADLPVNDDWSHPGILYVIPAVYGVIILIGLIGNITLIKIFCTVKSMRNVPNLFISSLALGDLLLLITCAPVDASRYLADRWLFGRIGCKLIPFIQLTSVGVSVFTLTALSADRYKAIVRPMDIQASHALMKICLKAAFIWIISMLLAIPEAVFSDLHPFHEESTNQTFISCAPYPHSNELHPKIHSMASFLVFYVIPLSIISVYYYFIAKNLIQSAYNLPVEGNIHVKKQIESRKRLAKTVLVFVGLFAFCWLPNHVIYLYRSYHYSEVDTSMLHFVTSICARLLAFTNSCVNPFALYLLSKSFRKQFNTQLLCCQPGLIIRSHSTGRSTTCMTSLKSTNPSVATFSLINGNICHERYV
Run Description: cell-based or functional assay
Starred links: 1 amine or outer side, 2 acyl side, 3 side chain; linkers in the order of their positions; H or OH if unused. Non-standard residues stand in square brackets, D forms with d. *: point of attachment. Trp(7-Me) = Cc1cccc2c(C[C@H](N)C(=O)O)c[nH]c12; C18 diacid = O=C(O)CCCCCCCCCCCCCCCCC(=O)*; γGlu = O=C(O)[C@H](CCC(=O)[*:2])N[*:1]; Palmitoyl = CCCCCCCCCCCCCCCC(=O)*; Nle = CCCC[C@H](N)C(=O)O; AEEA = NCCOCCOCC(=O)O; βAla = NCCC(=O)O; Sar = CNCC(=O)O
Readout: hIP1 GRPR EC50 (nM)

{"columns": ["Binder", "Value Operator", "Numeric Result"],
 "data": [
  ["{C18 diacid}-[γGlu][AEEA][AEEA]GNHWAV[βAla]HL[Nle]-NH2 (SMILES CCCC[C@H](NC(=O)[C@H](CC(C)C)NC(=O)[C@H](Cc1c[nH]cn1)NC(=O)CCNC(=O)[C@@H](NC(=O)[C@H](C)NC(=O)[C@H](Cc1c[nH]c2ccccc12)NC(=O)[C@H](Cc1c[nH]cn1)NC(=O)[C@H](CC(N)=O)NC(=O)CNC(=O)COCCOCCNC(=O)COCCOCCNC(=O)CC[C@H](NC(=O)CCCCCCCCCCCCCCCCC(=O)O)C(=O)O)C(C)C)C(N)=O) [Peptide 142]", "=", 3.55],
  ["Palmitoyl-[γGlu][AEEA][AEEA]GNH[Trp(7-Me)]AV[dA]HL[Nle][Sar]-NH2 (SMILES CCCCCCCCCCCCCCCC(=O)N[C@@H](CCC(=O)NCCOCCOCC(=O)NCCOCCOCC(=O)NCC(=O)N[C@@H](CC(N)=O)C(=O)N[C@@H](Cc1c[nH]cn1)C(=O)N[C@@H](Cc1c[nH]c2c(C)cccc12)C(=O)N[C@@H](C)C(=O)N[C@H](C(=O)N[C@H](C)C(=O)N[C@@H](Cc1c[nH]cn1)C(=O)N[C@@H](CC(C)C)C(=O)N[C@@H](CCCC)C(=O)N(C)CC(N)=O)C(C)C)C(=O)O) [Peptide 112]", ">", 10000]
]}
